system: 186277-243-T-J2-PDC multi-cell spheroid viability; test: Anticancer human tumor 186277-243-T-J2-PDC patient-derived colon adenocarcinoma cell line growth inhibition [PI3K]; conditions: curve of first compound; second compound 3.16 µM
Reported IC50 by item:

# Molecule, Measurement target, IC50
data = [
    ("CNC(=O)c1ccc(N2C(=S)N(c3ccc(C#N)c(C(F)(F)F)c3)C(=O)C2(C)C)cc1F + CC(Nc1ncnc2nc[nH]c12)c1cc2cccc(Cl)c2c(=O)n1-c1ccccc1", "186277-243-T-J2-PDC multi-cell spheroid viability", "> 10000 nM"),
    ("Cn1cnc2c(F)c(Nc3ccc(Br)cc3Cl)c(C(=O)NOCCO)cc21 + Cc1nc(NC(=O)N2CCCC2C(N)=O)sc1-c1ccnc(C(C)(C)C(F)(F)F)c1", "186277-243-T-J2-PDC multi-cell spheroid viability", "< 9.49 nM"),
    ("CNC(=O)c1ccc(N2C(=S)N(c3ccc(C#N)c(C(F)(F)F)c3)C(=O)C2(C)C)cc1F + Cc1nc(NC(=O)N2CCCC2C(N)=O)sc1-c1ccnc(C(C)(C)C(F)(F)F)c1", "186277-243-T-J2-PDC multi-cell spheroid viability", "> 10000 nM"),
    ("Cn1nccc1Nc1nccc(-c2ccn(C(CO)c3ccc(Cl)c(F)c3)c(=O)c2)n1 (stereo not given) + Cc1nc(NC(=O)N2CCCC2C(N)=O)sc1-c1ccnc(C(C)(C)C(F)(F)F)c1", "186277-243-T-J2-PDC multi-cell spheroid viability", "< 31.6 nM"),
    ("Cn1ncc(Cl)c1-c1cc(C(=O)NC(CN)Cc2cccc(F)c2)sc1Cl (stereo not given) + Cc1nc(NC(=O)N2CCCC2C(N)=O)sc1-c1ccnc(C(C)(C)C(F)(F)F)c1", "186277-243-T-J2-PDC multi-cell spheroid viability", "< 31.6 nM"),
]

----------
Reported viability, T/C by item:
test system: 186277-243-T-J2-PDC multi-cell spheroid viability; assay: Anticancer human tumor 186277-243-T-J2-PDC cell line growth inhibition [PI3K]; conditions: second compound 10 µM; first compound 1 µM; stronger effect = lower value;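 also: spheroids exposed to compounds for seven days before viability reading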;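 as to viability, T/C: 100% = DMSO vehicle control viability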

# Compound, Scale unit, viability, T/C
rows = [
    ("CC(Cn1ccc(-c2ccc(C#N)c(Cl)c2)n1)NC(=O)c1cc(C(C)O)[nH]n1 (stereo not drawn) + CC(Nc1ncnc2nc[nH]c12)c1cc2cccc(Cl)c2c(=O)n1-c1ccccc1", "%", 98.9),
    ("CC1(C)CCC(CN2CCN(c3ccc(C(=O)NS(=O)(=O)c4ccc(NCC5CCOCC5)c([N+](=O)[O-])c4)c(Oc4cnc5[nH]ccc5c4)c3)CC2)=C(c2ccc(Cl)cc2)C1 + CC(Nc1ncnc2nc[nH]c12)c1cc2cccc(Cl)c2c(=O)n1-c1ccccc1", "%", 95.5),
    ("CC1(C)CCC(CN2CCN(c3ccc(C(=O)NS(=O)(=O)c4ccc(NCC5CCOCC5)c([N+](=O)[O-])c4)c(Oc4cnc5[nH]ccc5c4)c3)CC2)=C(c2ccc(Cl)cc2)C1 + Cc1nc(NC(=O)N2CCCC2C(N)=O)sc1-c1ccnc(C(C)(C)C(F)(F)F)c1", "%", 12.8),
]

----------
system: 186277-243-T-J2-PDC multi-cell spheroid viability; assay: Anticancer human tumor 186277-243-T-J2-PDC cell line growth inhibition [PI3K]; conditions: second compound 0.316 µM; first compound 3.16 µM; stronger effect = lower value;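 also: spheroids exposed to compounds for seven days before viability reading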;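 as to viability, T/C: 100% = DMSO vehicle control viability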
Reported viability, T/C by item:

# Compound, viability, T/C (%)
measured = [
    ("C[C@@H](NC(=O)c1ncnc(N)c1Cl)c1ncc(C(=O)Nc2cc(C(F)(F)F)c(Cl)cn2)s1 + CC(Nc1ncnc2nc[nH]c12)c1cc2cccc(Cl)c2c(=O)n1-c1ccccc1", 105),
    ("Cn1ncc(Cl)c1-c1cc(C(=O)NC(CN)Cc2cccc(F)c2)sc1Cl (centres undefined) + COc1c(OCCCN2CCOCC2)ccc2c3n(c(=NC(=O)c4cnc(N)nc4)nc12)CCN3", 3.95),
    ("C[C@@H](NC(=O)c1ncnc(N)c1Cl)c1ncc(C(=O)Nc2cc(C(F)(F)F)c(Cl)cn2)s1 + CC(Nc1ccc2c(c1)OCCn1cc(N3C(=O)OCC3C(F)F)nc1-2)C(N)=O", 34.4),
    ("CNC(=O)c1ccc(N2C(=S)N(c3ccc(C#N)c(C(F)(F)F)c3)C(=O)C2(C)C)cc1F + Cc1nc(NC(=O)N2CCCC2C(N)=O)sc1-c1ccnc(C(C)(C)C(F)(F)F)c1", 102),
]

----------
system: 186277-243-T-J2-PDC multi-cell spheroid viability; test: Anticancer human tumor 186277-243-T-J2-PDC cell line growth inhibition [PI3K]; conditions: second compound 0.1 µM; first compound 1 µM; stronger effect = lower value;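 also: spheroids exposed to compounds for seven days before viability reading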;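 as to viability, T/C: 100% = DMSO vehicle control viability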
Outcome measure: viability, T/C (%)

# Molecule, Measurement
records = [
    ("C=CC(=O)N1CCN(c2nc(=O)n(-c3c(C)ccnc3C(C)C)c3nc(-c4c(O)cccc4F)c(F)cc23)C(C)C1 (stereo not given) + Cc1nc(NC(=O)N2CCCC2C(N)=O)sc1-c1ccnc(C(C)(C)C(F)(F)F)c1", 95.6),
    ("CC1(C)CCC(CN2CCN(c3ccc(C(=O)NS(=O)(=O)c4ccc(NCC5CCOCC5)c([N+](=O)[O-])c4)c(Oc4cnc5[nH]ccc5c4)c3)CC2)=C(c2ccc(Cl)cc2)C1 + COc1c(OCCCN2CCOCC2)ccc2c3n(c(=NC(=O)c4cnc(N)nc4)nc12)CCN3", 21.3),
    ("CCCS(=O)(=O)Nc1ccc(F)c(C(=O)c2c[nH]c3ncc(-c4ccc(Cl)cc4)cc23)c1F + CC(Nc1ccc2c(c1)OCCn1cc(N3C(=O)OCC3C(F)F)nc1-2)C(N)=O", 113),
    ("Cn1ncc(Cl)c1-c1cc(C(=O)NC(CN)Cc2cccc(F)c2)sc1Cl (stereo not given) + CC(Nc1ccc2c(c1)OCCn1cc(N3C(=O)OCC3C(F)F)nc1-2)C(N)=O", 21.9),
    ("Cn1nccc1Nc1nccc(-c2ccn(C(CO)c3ccc(Cl)c(F)c3)c(=O)c2)n1 (stereo not given) + CC(Nc1ncnc2nc[nH]c12)c1cc2cccc(Cl)c2c(=O)n1-c1ccccc1", 89.1),
]

----------
Test system: 186277-243-T-J2-PDC multi-cell spheroid viability
Test: Anticancer human tumor 186277-243-T-J2-PDC cell line growth inhibition [PI3K];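 also: spheroids exposed to compounds for seven days before viability reading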;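 as to viability, T/C: 100% = DMSO vehicle control viability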
Conditions: second compound 0.0316 µM; first compound 0.0316 µM; stronger effect = lower value
From the text: Combinatorial screen of targeted agents with the PI3K inhibitors inavolisib, alpelisib, duvelisib, and copanlisib in multi-cell type tumor spheroids A high-throughput screen of multi-cell type tumor spheroids was designed to identify active combinations of targeted small molecules and PI3K pathway inhibitors. […] Compounds. […] If the clinical Cmax for an agent had not been determined, the highest concentration tested was 10 microM. […]

# Compound, Measurement target, viability, T/C
measured = [
    ("CC(C)NCC(C(=O)N1CCN(c2ncnc3c2C(C)CC3O)CC1)c1ccc(Cl)cc1 (stereo unspecified) + Cc1nc(NC(=O)N2CCCC2C(N)=O)sc1-c1ccnc(C(C)(C)C(F)(F)F)c1", "186277-243-T-J2-PDC multi-cell spheroid viability", "115%"),
    ("CC(Cn1ccc(-c2ccc(C#N)c(Cl)c2)n1)NC(=O)c1cc(C(C)O)[nH]n1 (stereo unspecified) + Cc1nc(NC(=O)N2CCCC2C(N)=O)sc1-c1ccnc(C(C)(C)C(F)(F)F)c1", "186277-243-T-J2-PDC multi-cell spheroid viability", "99.2%"),
    ("CCN1CCN(Cc2ccc(Nc3ncc(F)c(-c4cc(F)c5nc(C)n(C(C)C)c5c4)n3)nc2)CC1 + CC(Nc1ncnc2nc[nH]c12)c1cc2cccc(Cl)c2c(=O)n1-c1ccccc1", "186277-243-T-J2-PDC multi-cell spheroid viability", "104%"),
    ("CCCS(=O)(=O)Nc1ccc(F)c(C(=O)c2c[nH]c3ncc(-c4ccc(Cl)cc4)cc23)c1F + COc1c(OCCCN2CCOCC2)ccc2c3n(c(=NC(=O)c4cnc(N)nc4)nc12)CCN3", "186277-243-T-J2-PDC multi-cell spheroid viability", "81.1%"),
    ("CCN1CCN(Cc2ccc(Nc3ncc(F)c(-c4cc(F)c5nc(C)n(C(C)C)c5c4)n3)nc2)CC1 + Cc1nc(NC(=O)N2CCCC2C(N)=O)sc1-c1ccnc(C(C)(C)C(F)(F)F)c1", "186277-243-T-J2-PDC multi-cell spheroid viability", "107%"),
    ("CNC(=O)c1ccc(N2C(=S)N(c3ccc(C#N)c(C(F)(F)F)c3)C(=O)C2(C)C)cc1F + CC(Nc1ccc2c(c1)OCCn1cc(N3C(=O)OCC3C(F)F)nc1-2)C(N)=O", "186277-243-T-J2-PDC multi-cell spheroid viability", "110%"),
    ("Cn1nccc1Nc1nccc(-c2ccn(C(CO)c3ccc(Cl)c(F)c3)c(=O)c2)n1 (stereo unspecified) + Cc1nc(NC(=O)N2CCCC2C(N)=O)sc1-c1ccnc(C(C)(C)C(F)(F)F)c1", "186277-243-T-J2-PDC multi-cell spheroid viability", "89%"),
    ("Cn1ncnc1[C@H]1c2n[nH]c(=O)c3cc(F)cc(c23)N[C@@H]1c1ccc(F)cc1 + CC(Nc1ccc2c(c1)OCCn1cc(N3C(=O)OCC3C(F)F)nc1-2)C(N)=O", "186277-243-T-J2-PDC multi-cell spheroid viability", "101%"),
    ("Cn1ncnc1[C@H]1c2n[nH]c(=O)c3cc(F)cc(c23)N[C@@H]1c1ccc(F)cc1 + Cc1nc(NC(=O)N2CCCC2C(N)=O)sc1-c1ccnc(C(C)(C)C(F)(F)F)c1", "186277-243-T-J2-PDC multi-cell spheroid viability", "112%"),
    ("CNC(=O)c1ccc(N2C(=S)N(c3ccc(C#N)c(C(F)(F)F)c3)C(=O)C2(C)C)cc1F + Cc1nc(NC(=O)N2CCCC2C(N)=O)sc1-c1ccnc(C(C)(C)C(F)(F)F)c1", "186277-243-T-J2-PDC multi-cell spheroid viability", "83.5%"),
    ("CC1(C)CCC(CN2CCN(c3ccc(C(=O)NS(=O)(=O)c4ccc(NCC5CCOCC5)c([N+](=O)[O-])c4)c(Oc4cnc5[nH]ccc5c4)c3)CC2)=C(c2ccc(Cl)cc2)C1 + Cc1nc(NC(=O)N2CCCC2C(N)=O)sc1-c1ccnc(C(C)(C)C(F)(F)F)c1", "186277-243-T-J2-PDC multi-cell spheroid viability", "101%"),
]
